target.desc: MAO-B (Homo sapiens, UniProt P27338)
Sequence (P27338 1-520): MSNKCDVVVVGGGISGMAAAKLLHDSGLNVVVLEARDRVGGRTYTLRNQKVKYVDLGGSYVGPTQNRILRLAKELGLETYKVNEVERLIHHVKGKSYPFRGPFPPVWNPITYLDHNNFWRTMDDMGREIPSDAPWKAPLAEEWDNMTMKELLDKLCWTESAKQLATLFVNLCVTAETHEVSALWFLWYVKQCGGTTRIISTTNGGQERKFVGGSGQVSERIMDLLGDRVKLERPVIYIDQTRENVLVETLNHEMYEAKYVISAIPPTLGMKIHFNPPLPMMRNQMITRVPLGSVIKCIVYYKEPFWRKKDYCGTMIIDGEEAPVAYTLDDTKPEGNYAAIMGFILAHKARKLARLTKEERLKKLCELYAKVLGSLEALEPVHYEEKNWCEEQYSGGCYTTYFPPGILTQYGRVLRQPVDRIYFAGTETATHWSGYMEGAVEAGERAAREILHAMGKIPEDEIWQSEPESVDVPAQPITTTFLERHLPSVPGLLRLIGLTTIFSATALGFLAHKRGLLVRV
measurement.notes: MAO-B inhibitor screening kit (fluorometric) assay
conditions: isolated compounds; mean ± SD, n = 3; ND = no detection using test concentration
Listed next: entries and their corresponding pIC50.
Just the number, please; pIC50 means minus log10 of the concentration in mol/L.

Consider the worked cases shown below.
[[record]]
compound = "COc1cc(/C=C/C(=O)O)ccc1O[C@@H]1O[C@H](CO)[C@@H](O)[C@H](O)[C@H]1O [Compound 3, lavandoside]"
observed_measurement = 3.81

[[record]]
compound = "O=c1c(O[C@@H]2O[C@H](CO)[C@@H](O)[C@H](O)[C@H]2O)c(-c2ccc(O)cc2)oc2cc(O[C@@H]3O[C@@H](CO)[C@H](O)[C@H]3O)cc(O)c12"
observed_measurement = 4.18


Read the next record carefully.
Bench note, MAO-B (Homo sapiens, UniProt P27338): entry C[C@@H]1O[C@@H](O[C@H]2[C@H](Oc3cc(O)c4c(c3)O[C@H](c3ccc(O)c(O)c3)CC4=O)O[C@H](CO)[C@@H](O)[C@@H]2O)[C@H](O)[C@H](O)[C@H]1O , its pIC50 = 5.58

* * *

Listed next: entries and their corresponding pIC50.
target.desc: BACE1 (Homo sapiens, UniProt P56817)
Construct: purchased PanVera Corporation, Madison, WI, USA P2985
Sequence (P56817 46-501): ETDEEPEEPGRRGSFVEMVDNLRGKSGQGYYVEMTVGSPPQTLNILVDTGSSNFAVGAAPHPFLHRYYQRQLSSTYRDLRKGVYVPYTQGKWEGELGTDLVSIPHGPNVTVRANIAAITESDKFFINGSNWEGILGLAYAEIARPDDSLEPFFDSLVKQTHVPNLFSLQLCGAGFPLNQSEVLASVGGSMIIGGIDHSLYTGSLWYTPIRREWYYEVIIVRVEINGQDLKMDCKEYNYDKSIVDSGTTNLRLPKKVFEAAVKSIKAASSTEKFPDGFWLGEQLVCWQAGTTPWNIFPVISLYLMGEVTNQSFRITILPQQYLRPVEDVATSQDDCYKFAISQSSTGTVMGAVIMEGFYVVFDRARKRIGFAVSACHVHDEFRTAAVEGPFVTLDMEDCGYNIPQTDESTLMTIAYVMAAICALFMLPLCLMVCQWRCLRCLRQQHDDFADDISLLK
measurement.notes: BACE1 (β-secretase) FRET inhibitory assay
Assay type: biochemical
conditions: isolated compounds; mean ± SD, n = 3; read-out: IC50 BACE1
Experimental: The BACE1 inhibition assay was conducted using the BACE1 (β-secretase) FRET Assay Kit, Red Protocol, part number P2985 (PanVera® Corporation, Madison, WI, USA), following the manufacturer’s recommended protocol with minor modifications. […] BACE1 enzyme activity was assessed by monitoring the proteolysis of two fluorophores (Rh-[…]-Quencher), forming the fluorescent donor (Rh-EVNL) with increased fluorescence wavelengths at 530–545 nm (excitation) and 570–590 nm (emission), respectively. […]
Just the number, please; pIC50 means minus log10 of the concentration in mol/L.

[[record]]
compound = "COc1ccc([C@@H]2CC(=O)c3c(O)cc(O[C@@H]4O[C@H](CO[C@@H]5O[C@@H](C)[C@H](O)[C@@H](O)[C@H]5O)[C@@H](O)[C@H](O)[C@H]4O)cc3O2)cc1O [Compound 10, hesperidin]"
metric = "pIC50"
observed_measurement = 4.25

[[record]]
compound = "O=C(O)/C=C/c1ccc(O[C@@H]2O[C@H](CO)[C@@H](O)[C@H](O)[C@H]2O)c(O)c1 [Compound 2, caffeic acid 4-O-β-D-glucopyranoside]"
metric = "pIC50"
observed_measurement = 4.35


Read the next record carefully.
Form field pIC50, entry C[C@@H]1O[C@@H](O[C@H]2[C@H](Oc3cc(O)c4c(c3)O[C@H](c3ccc(O)cc3)CC4=O)O[C@H](CO)[C@@H](O)[C@@H]2O)[C@H](O)[C@H](O)[C@H]1O [Compound 9, naringin] : 4.19

* * *

target.desc: AChE from electric eel (Electrophorus electricus, UniProt O42275)
Construct: purchased Sigma-Aldrich Co., St. Louis, USA
Sequence (O42275 24-633): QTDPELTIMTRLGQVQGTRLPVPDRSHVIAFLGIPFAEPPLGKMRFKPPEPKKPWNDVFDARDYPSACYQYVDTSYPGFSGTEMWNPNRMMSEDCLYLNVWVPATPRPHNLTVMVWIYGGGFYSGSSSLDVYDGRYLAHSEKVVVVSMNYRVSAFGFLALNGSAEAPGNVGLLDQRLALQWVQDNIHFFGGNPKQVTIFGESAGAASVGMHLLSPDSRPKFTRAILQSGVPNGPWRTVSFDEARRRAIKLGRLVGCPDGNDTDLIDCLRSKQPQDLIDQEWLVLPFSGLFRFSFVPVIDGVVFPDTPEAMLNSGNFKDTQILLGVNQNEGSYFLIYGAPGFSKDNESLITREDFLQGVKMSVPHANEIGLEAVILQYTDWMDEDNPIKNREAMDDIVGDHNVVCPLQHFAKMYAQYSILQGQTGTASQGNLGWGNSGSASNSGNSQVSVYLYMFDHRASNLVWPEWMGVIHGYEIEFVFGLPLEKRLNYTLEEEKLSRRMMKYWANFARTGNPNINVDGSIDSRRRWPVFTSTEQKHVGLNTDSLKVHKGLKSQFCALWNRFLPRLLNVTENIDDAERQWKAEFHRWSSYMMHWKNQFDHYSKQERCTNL
measurement.notes: biochemical
Type: biochemical
conditions: isolated compounds; mean ± SD, n = 3; ND = no detection using test concentration; read-out: IC50 AChE
Description: The AChE- and BChE-inhibitory, MTT, and Th T assays were analyzed using a UV–visible (VIS) spectrophotometer (Biotek, EPOCH2, Winooski, VT, USA), ensuring accurate measurements. For BACE1- and MAO-B-inhibitory assays, a multimode microplate reader (SpectraMax M3, Molecular Devices, San Jose, CA, USA) was employed, providing precise readings. […] The inhibitory activities against cholinesterases (AChE and BChE) were evaluated using a spectrophotometric method previously developed by Ellman et al.. […]
metric: pIC50
Just the number, please; pIC50 means minus log10 of the concentration in mol/L.

[[record]]
compound = "O=c1c(O[C@@H]2O[C@H](CO)[C@@H](O)[C@H](O)[C@H]2O)c(-c2ccc(O)cc2)oc2cc(O[C@@H]3O[C@@H](CO)[C@H](O)[C@H]3O)cc(O)c12"
target_desc = "AChE from electric eel (Electrophorus electricus, UniProt O42275)"
metric = "pIC50"
observed_measurement = 4.32

[[record]]
compound = "O=C(O)/C=C/c1ccc(O[C@@H]2O[C@H](CO)[C@@H](O)[C@H](O)[C@H]2O)c(O)c1 [Compound 2, caffeic acid 4-O-β-D-glucopyranoside]"
target_desc = "AChE from electric eel (Electrophorus electricus, UniProt O42275)"
metric = "pIC50"
observed_measurement = 4.83

[[record]]
compound = "O=C(O)/C=C/c1ccc(O[C@@H]2O[C@H](CO)[C@@H](O)[C@H](O)[C@H]2O)cc1 [Compound 1, coumaric acid 4-O-β-D-glucopyranoside]"
target_desc = "AChE from electric eel (Electrophorus electricus, UniProt O42275)"
metric = "pIC50"
observed_measurement = 4.48


Read the next record carefully.
Form field pIC50, entry C[C@@H]1O[C@@H](Oc2c(-c3ccc(O)cc3)oc3cc(O[C@@H]4O[C@H](CO)[C@@H](O)[C@H](O)[C@H]4O)cc(O)c3c2=O)[C@H](O)[C@H](O)[C@H]1O [Compound 6, kaempferol 3-O-rhamnoside 7-O-glucoside] : 3.45

* * *

target.desc: UniProt P27338
measurement.notes: MAO-B inhibitor screening kit (fluorometric) assay
conditions: isolated compounds; mean ± SD, n = 3; ND = no detection using test concentration
Listed next: entries and their corresponding pIC50.
Just the number, please; pIC50 means minus log10 of the concentration in mol/L.

Consider the worked cases shown below.
[[record]]
molecule = "COc1cc(/C=C/C(=O)O)cc(OC)c1O[C@@H]1O[C@H](CO)[C@@H](O)[C@H](O)[C@H]1O [Compound 4, trans-p-sinapoyl-β-D-glucopyranoside]"
observed_measurement = 3.22

[[record]]
molecule = "C[C@@H]1O[C@@H](Oc2c(-c3ccc(O)cc3)oc3cc(O[C@@H]4O[C@H](CO)[C@@H](O)[C@H](O)[C@H]4O)cc(O)c3c2=O)[C@H](O)[C@H](O)[C@H]1O [Compound 6, kaempferol 3-O-rhamnoside 7-O-glucoside]"
observed_measurement = 3.96

[[record]]
molecule = "COc1ccc([C@@H]2CC(=O)c3c(O)cc(O[C@@H]4O[C@H](CO[C@@H]5O[C@@H](C)[C@H](O)[C@@H](O)[C@H]5O)[C@@H](O)[C@H](O)[C@H]4O)cc3O2)cc1O"
observed_measurement = 4.01


Form field pIC50, entry C[C@@H]1O[C@@H](O[C@H]2[C@H](Oc3cc(O)c4c(c3)O[C@H](c3ccc(O)cc3)CC4=O)O[C@H](CO)[C@@H](O)[C@@H]2O)[C@H](O)[C@H](O)[C@H]1O : 4.29

Form field pIC50, entry O=C(O)/C=C/c1ccc(O[C@@H]2O[C@H](CO)[C@@H](O)[C@H](O)[C@H]2O)c(O)c1 [Compound 2, caffeic acid 4-O-β-D-glucopyranoside] : 3.40

* * *

target.desc: AChE from electric eel (Electrophorus electricus, UniProt O42275)
Construct: purchased Sigma-Aldrich Co., St. Louis, USA
measurement.notes: biochemical
Format: biochemical
metric: IC50

[[record]]
molecule = "C[C@@H]1O[C@@H](O[C@H]2[C@H](Oc3cc(O)c4c(c3)O[C@H](c3ccc(O)cc3)CC4=O)O[C@H](CO)[C@@H](O)[C@@H]2O)[C@H](O)[C@H](O)[C@H]1O [Compound 9, naringin]"
target_desc = "AChE from electric eel (Electrophorus electricus, UniProt O42275)"
observed_measurement = "124 µM"

[[record]]
molecule = "COc1ccc2cc3[n+](cc2c1OC)CCc1cc2c(cc1-3)OCO2 [Berberine, berberine, reference compound]"
target_desc = "AChE from electric eel (Electrophorus electricus, UniProt O42275)"
observed_measurement = "0.119 µM"

[[record]]
molecule = "C[C@@H]1O[C@@H](O[C@H]2[C@H](Oc3cc(O)c4c(c3)O[C@H](c3ccc(O)c(O)c3)CC4=O)O[C@H](CO)[C@@H](O)[C@@H]2O)[C@H](O)[C@H](O)[C@H]1O [Compound 8, neoeriocitrin]"
target_desc = "AChE from electric eel (Electrophorus electricus, UniProt O42275)"
observed_measurement = "31.6 µM"


Read the next record carefully.
Form field IC50, entry COc1ccc([C@@H]2CC(=O)c3c(O)cc(O[C@@H]4O[C@H](CO[C@@H]5O[C@@H](C)[C@H](O)[C@@H](O)[C@H]5O)[C@@H](O)[C@H](O)[C@H]4O)cc3O2)cc1O [Compound 10, hesperidin] : 57.7 µM
